Target: human Edg-1 receptor (Homo sapiens)
Construct: expressed in transfected cells; membrane preparation
Sequence (P21453 whole entry): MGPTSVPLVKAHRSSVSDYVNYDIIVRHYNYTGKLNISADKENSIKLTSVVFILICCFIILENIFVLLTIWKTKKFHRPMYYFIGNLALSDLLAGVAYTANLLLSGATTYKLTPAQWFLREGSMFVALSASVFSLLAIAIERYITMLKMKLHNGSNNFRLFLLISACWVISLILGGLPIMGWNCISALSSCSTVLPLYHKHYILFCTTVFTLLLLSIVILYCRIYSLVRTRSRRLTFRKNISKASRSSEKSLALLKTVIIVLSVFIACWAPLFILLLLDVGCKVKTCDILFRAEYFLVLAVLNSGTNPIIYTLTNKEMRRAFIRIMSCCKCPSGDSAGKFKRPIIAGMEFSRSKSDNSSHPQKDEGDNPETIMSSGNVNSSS
Assay: GTP-γ-S assay using human Edg-1 receptors (scintillation proximity assay, membrane preparation from CHO Flp-In cell line)
Assay type: biochemical
Conditions: example compound at 10 μM; relative to 10 μM S1P; GTP-γ-S SPA, human Edg-1 membranes
From the text: Determination of the Pharmacological Activity A) GTP-γ-S Assay Using Human Edg-1 Receptors In order to determine the Edg-1 receptor activation by the compounds of the invention, a GTP-γ-S (guanosine 5′-[γ-thio]triphosphate) assay for G-protein coupled receptor binding based on the scintillation proximity assay principle was used, employing a cell membrane preparation from a CHO Flp-In cell line which constitutively overexpresses the human Edg-1 receptor. […]
recorded-endpoint: % Activation (Edg-1 receptor activation in percent of the activation by 10 μM S1P) (%)

CCCOc1nc(Cc2ccc(Cl)cc2)nc2oc(-c3cc(C)c(OCC(=O)NCC(=O)OC(C)(C)C)c(C)c3)nc12 : 69
CCCOc1nc(CN2CC(=O)N(Cc3ccccc3)C2=O)nc2oc(-c3cccc(F)c3)nc12 : 56
CCCOc1nc(CN2CCOCC2)nc2oc(-c3ccc(OC)c(F)c3)nc12 : 101
CCCOc1nc(CN2CCC(F)(F)CC2)nc2oc(-c3ccc(Br)o3)nc12 : 120
CCOc1nc(Cc2ccc(Cl)cc2)nc2oc(-c3cccc(OCC(=O)N[C@@H](C)C(=O)O)c3)nc12 : 100
CCCOc1nc(CN2CCOCC2)nc2oc(-c3cncc(F)c3)nc12 : 82
CCCOc1nc(CC2CCC2)nc2oc(-c3cccc(C)c3)nc12 : 108
CCCOc1nc(CN2CCC(F)(F)CC2)nc2oc(-c3cccc(OC)c3)nc12 : 127
CCOc1nc(Cc2ccc(Cl)cc2)nc2oc(-c3cc(C)c(OCC(=O)NCC#N)c(C)c3)nc12 : 83
CCOc1nc(Cc2ccc(Cl)cc2)nc2oc(-c3cc(C)c(OCC(O)CNC(=O)CO)c(C)c3)nc12 (centres unmarked) : 97
CC(C)Oc1nc(CN2CCOCC2)nc2oc(-c3cccc(F)c3)nc12 : 115
CCCOc1nc(Cc2ccc(Cl)cc2)nc2oc(-c3cccs3)nc12 : 85
CCOc1nc(Cc2ccc(Cl)cc2)nc2oc(-c3cccc(OCC(=O)N4CCC[C@@H]4C(=O)O)c3)nc12 : 69
CCCOc1nc(Cc2ccc(Cl)cc2)nc2oc(-c3cc(C)c(OCC(=O)NCCO)c(C)c3)nc12 : 97
CCCOc1nc(CN2CCCOCC2)nc2oc(-c3ccco3)nc12 : 100
CCCOc1nc(CN2CCC(F)CC2)nc2oc(-c3cccc(F)c3)nc12 : 113
CCCOc1nc(CN2CCCC(F)(F)C2)nc2oc(-c3cccc(F)c3)nc12 : 102
CCOc1nc(Cc2ccc(Cl)cc2)nc2oc(-c3cc(C)c(OCC(=O)N4CCC[C@H]4C(=O)O)c(C)c3)nc12 : 78
CCCOc1nc(CN2CCOCC2)nc2oc(-c3c(F)ccc(F)c3F)nc12 : 104
FCCCOc1nc(Cc2ccc(Cl)cc2)nc2oc(-c3cccnc3)nc12 [Example 126] : 105
CCCOc1nc(Cc2ccc(Cl)cc2)nc2oc(-c3cccc(C)c3)nc12 : 91
CCCOc1nc(CN2C(=O)CCCC2=O)nc2oc(-c3cccc(F)c3)nc12 : 102
CCCOc1nc(Cn2cc(C)cn2)nc2oc(-c3cccc(F)c3)nc12 : 35
CCCOc1nc(CN2CCOCC2)nc2oc(-c3cc(F)c(F)cc3Cl)nc12 : 108
CCCOc1nc(Cn2ccnn2)nc2oc(-c3cccc(F)c3)nc12 : 78
CCOc1nc(Cc2ccc(Cl)cc2)nc2oc(-c3cc(C)c(OCC(O)CS(=O)(=O)c4nnc(C)[nH]4)c(C)c3)nc12 (centres unmarked) : 105
